Assay: Phase 1 hepatic impairment study, plasma PK after single oral 20 mg tablet
Type: in vivo, human
Conditions: both sexes, human, plasma, oral, 20 mg, normal hepatic function; read-out: MRT(0-inf), Median (min, max)
REPORTED ENDPOINT: MRT inf (h)

N#Cc1cccc(-c2ccc3ncc(-c4cc(F)cc(F)c4)c(N4CCC(N)CC4)c3c2)c1O	34.6

###

Assay: Phase 1 hepatic impairment study, plasma PK after single oral 20 mg tablet
Format: in vivo, human
Conditions: both sexes, human, plasma, oral, 20 mg, normal hepatic function; read-out: VZ/F, Mean ± SD
REPORTED ENDPOINT: Vd/F

N#Cc1cccc(-c2ccc3ncc(-c4cc(F)cc(F)c4)c(N4CCC(N)CC4)c3c2)c1O	660 L
